- assayed.target: RanGTP-importin-beta complex (human Ran / KPNB1)
- assay.info: disruptors of RanGTP/KPNB1 binding – biochemical, FRET, CFP/YFP, cell-free homogeneous, confirmation (AID 2823)
- condition.label: CFP-Ran/YFP-importin-beta FRET ratio
The source made the active and inactive calls. No rule for the calls is given here.
attribute.measured: IC50

# compound, attribute.measured, result
measured = [
    ("COc1ccccc1N=C(C)C1=C(O)CC(c2ccccc2)CC1=O (stereo unspecified)", "IC50", "> 50 µM (inactive)"),
    ("COC(=O)c1n[nH]c2ccccc12", "IC50", "47.7 µM"),
    ("CCOC(=O)C1CCN(C(=O)COC(=O)c2ccc3[nH]c4c(c3c2)CCCC4)CC1", "IC50", "> 50 µM (inactive)"),
]

Here is another compound to look at.
Inquiry: So what's the measured IC50 for this one? CCCc1noc(-c2cccc([N+](=O)[O-])c2)n1
Reply text: > 50 µM (inactive)

---

- assayed.target: RanGTP-importin-beta complex (human Ran / KPNB1)
- assay.info: disruptors of RanGTP/KPNB1 binding – biochemical, FRET, CFP/YFP, cell-free homogeneous, confirmation (AID 2823)
- condition.label: CFP-Ran/YFP-importin-beta FRET ratio
Calls of active or inactive are those of the source. The rule behind the calls is not given here.
Select the correct class. Options are active, inactive and nothing else.

Solved entries (count: 10):
# compound, assayed.target, group.label
measured = [
    ("O=C(NC1CCCCCC1)C(=S)NCCc1ccccc1", "RanGTP-importin-beta complex (human Ran / KPNB1)", "inactive"),
    ("O=C1C=C(Nc2ccc(Cl)cc2Cl)CC(c2ccco2)C1 (stereo unspecified)", "RanGTP-importin-beta complex (human Ran / KPNB1)", "inactive"),
    ("O=C(Nc1cccc(-c2nc3ccccc3s2)c1)c1cccs1", "RanGTP-importin-beta complex (human Ran / KPNB1)", "inactive"),
    ("Cn1c(=O)[nH]c2c(nc(-c3ccc(Cl)cc3)n2C)c1=O", "RanGTP-importin-beta complex (human Ran / KPNB1)", "active"),
    ("COc1ccccc1C(=O)c1cc2ccc(O)cc2oc1=O", "RanGTP-importin-beta complex (human Ran / KPNB1)", "active"),
    ("O=C(O)/C=C/C(=O)Nc1ccc2c(c1)NC(=O)CO2", "RanGTP-importin-beta complex (human Ran / KPNB1)", "inactive"),
    ("CCN(CC)S(=O)(=O)c1ccc(NC(=O)c2cccc3c2C(=O)N(CCOC)C3)cc1", "RanGTP-importin-beta complex (human Ran / KPNB1)", "inactive"),
    ("COc1ccc2c(C)c(C(=O)N3CC[C@@H](N4CCC(O)CC4)[C@H](O)C3)oc2c1", "RanGTP-importin-beta complex (human Ran / KPNB1)", "inactive"),
    ("CCC(=O)Nc1ccc(N/C(N)=N/c2nc(C)cc(C)n2)cc1", "RanGTP-importin-beta complex (human Ran / KPNB1)", "inactive"),
    ("Cc1nc2[nH]c(=O)c3c(n2n1)NC1=C(C(=O)CC(C)(C)C1)C3c1ccc(F)cc1 (stereo unspecified)", "RanGTP-importin-beta complex (human Ran / KPNB1)", "active"),
]

--- query ---
Inquiry: Could you kindly confirm the outcome this assay logged for Cc1ccc(CNC(=O)c2cccnc2)cc1 ?
Reply text: inactive

---

- assayed.target: RanGTP-importin-beta complex (human Ran / KPNB1)
- assay.info: disruptors of RanGTP/KPNB1 binding – biochemical, FRET, CFP/YFP, cell-free homogeneous, confirmation (AID 2823)
- condition.label: CFP-Ran/YFP-importin-beta FRET ratio
Active and inactive are the calls of the source. No rule for the calls is given here.
I would appreciate it if you answered using one of these outcomes: 1 = active, 0 = inactive

Field: example entries. Status: answers known.
# compound, assayed.target, group.label
rows = [
    ("Cc1ccc(S(=O)(=O)NCCN(CCNS(=O)(=O)c2ccc(C)cc2)S(C)(=O)=O)cc1", "RanGTP-importin-beta complex (human Ran / KPNB1)", 0),
    ("COc1ccc(N=Cc2cc(Cc3ccccc3Cl)cc([N+](=O)[O-])c2O)cc1OC", "RanGTP-importin-beta complex (human Ran / KPNB1)", 0),
    ("COc1ccc(C(=O)/C=C/Nc2cccc(C)n2)cc1OC", "RanGTP-importin-beta complex (human Ran / KPNB1)", 1),
    ("Cc1ccc(/C=C2/C(=O)c3ccc(C(=O)O)cc3C2=O)o1", "RanGTP-importin-beta complex (human Ran / KPNB1)", 0),
    ("CN(Cc1cnc2nc(N)nc(N)c2n1)c1ccc(C(=O)N[C@@H](CCC(=O)O)C(=O)O)cc1", "RanGTP-importin-beta complex (human Ran / KPNB1)", 0),
]

Read the next record carefully.
Inquiry: Hi, do you know how Cc1ccc(S(=O)(=O)N(C)Cc2ccc(C(=O)N/N=C3\CC(=O)CC(C)(C)C3)cc2)cc1 came out in this test?
Reply text: 0

---

- assayed.target: RanGTP-importin-beta complex (human Ran / KPNB1)
- assay.info: disruptors of RanGTP/KPNB1 binding – biochemical, FRET, CFP/YFP, cell-free homogeneous, confirmation (AID 2823)
- condition.label: CFP-Ran/YFP-importin-beta FRET ratio
Activity calls are given as the source filed them. No rule for the calls is given here.
Mark one answer only. Choices: true (1) = active, false (0) = inactive

Here's what some known entries look like.
# compound, group.label
data = [
    ("Cc1[nH]nc2c1C(c1ccoc1)C(C#N)=C(N)O2 (stereo not given)", "false (0)"),
    ("Cn1c(=O)oc2cc(S(=O)(=O)NCCC(=O)N3CC=C(c4ccccc4)CC3)ccc21", "false (0)"),
    ("CCCCc1cc(=O)oc2c(CN3CCCC3)c(O)c(Cl)cc12", "true (1)"),
]

Inquiry: Hi, sorry to bother you, what did the test record for C=CCn1c(O)c(N=NC(=S)Nc2ccccc2F)c2cc(S(=O)(=O)N3CCOCC3)ccc21 ?
Reply text: false (0)

Inquiry: So what was the verdict on Cc1nc2ccccc2c2oc(C(=O)NCCCN3CCC(C)CC3)cc12 in this test?
Reply text: false (0)

Inquiry: Kindly provide the recorded test outcome for the following compound: O=C(COC(=O)c1cccnc1Nc1ccccc1F)NCCN1C(=O)CSC1=O
Reply text: false (0)

Inquiry: Identify the outcome logged in this assay for the compound shown: Cc1cccc(CN2CCc3c(OCC(=O)N4CCCc5ccccc54)cccc3C2=O)c1
Reply text: false (0)

Inquiry: Kindly provide the recorded test outcome for the following compound: Cc1cc2oc3cc(NCCC4CCCN4C)ccc3c(=O)c2cc1C (stereo not given)
Reply text: true (1)

Inquiry: // outcome(item) with item = COc1cc([C@@H]2[C@H]3CN(C)CC=C3C(C#N)=C(N)C2(C#N)C#N)cc2c1OCO2
Reply text: true (1)

Inquiry: Record request — test call for O=[N+]([O-])c1cc(CN2CCCC2)ccc1Sc1ccc(Cl)cc1
Reply text: false (0)

---

We begin with a simple list: items and their reported IC50.
- assayed.target: RanGTP-importin-beta complex (human Ran / KPNB1)
- assay.info: disruptors of RanGTP/KPNB1 binding – biochemical, FRET, CFP/YFP, cell-free homogeneous, confirmation (AID 2823)
- condition.label: CFP-Ran/YFP-importin-beta FRET ratio
Calls of active or inactive are those of the source. The rule behind the calls is not given here.

Below: 5 compounds and their reported IC50.
# compound, result
measured = [
    ("CC(NCc1cccs1)C(=O)NC1CCCCC1 (stereo unspecified)", "> 50 µM (inactive)"),
    ("N#C/C(=C\\c1ccc(-c2ccc(F)cc2)o1)C(=O)Nc1nc(-c2cccs2)cs1", "> 50 µM (inactive)"),
    ("N#C/C(=C/c1ccc(N2CCCCC2)o1)C(=O)NCCc1c[nH]c2ccccc12", "0.936 µM"),
    ("CN1CC2=CC(O)CC3Oc4c(O)ccc(c4[C@]23C)C1 (stereo partly specified)", "> 50 µM (inactive)"),
    ("COc1ccc(-n2c(N)c(C(=O)NCc3ccco3)c3nc4ccccc4nc32)cc1OC", "45.6 µM"),
]

With those in mind, consider the next compound.
Inquiry: Would you mind telling me what IC50 value was observed for CC#CC(=O)N1CCC(C(=O)Nc2ccc(Oc3ccccc3)nc2)CC1 ?
Reply text: > 50 µM (inactive)

---

Below is a list of entries, each paired with its recorded IC50 value.
- assayed.target: RanGTP-importin-beta complex (human Ran / KPNB1)
- assay.info: disruptors of RanGTP/KPNB1 binding – biochemical, FRET, CFP/YFP, cell-free homogeneous, confirmation (AID 2823)
- condition.label: CFP-Ran/YFP-importin-beta FRET ratio
Active and inactive are the calls of the source. The rule behind the calls is not given here.

See these solved cases before continuing.
# compound, result
rows = [
    ("Oc1ccc(Br)cc1/C=N/n1c(-c2ccccc2)n[nH]c1=S", "> 50 µM (inactive)"),
    ("COc1ccc(-c2c(C)c3ccc(O)cc3oc2=O)cc1", "36.3 µM"),
    ("CC(C)OC(=O)c1c(N)n(CC2CCCO2)c2nc3ccccc3nc12 (centres undefined)", "18 µM"),
    ("C[C@H](O)c1[nH]c2cc(F)ccc2c1[C@H](C)O", "> 50 µM (inactive)"),
    ("CCn1c(SCC(=O)N(Cc2ccccc2)C2CCS(=O)(=O)C2)nc2ccccc2c1=O (centres undefined)", "> 50 µM (inactive)"),
]

With those in mind, consider the next compound.
Inquiry: Identify the measured IC50 of O=c1cc(CN2CCN(S(=O)(=O)c3ccc4c(c3)OCCO4)CC2)c2ccc(O)cc2o1 for RanGTP-importin-beta complex (human Ran / KPNB1).
Reply text: 10.9 µM
